- Test system: PXR homodimer (NR concentration 270 nM)
- experimentNotes: PBM binding z-score (relative to random genomic background probes); higher = stronger binding; sequences stand for … in GC…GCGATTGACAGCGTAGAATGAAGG
endpointLabel: PBM binding z-score

>>> readoutnumber("TAGCCTAGGTGATTGGGCCAGTATAGTACGCATC")
-0.684
>>> readoutnumber("CGAACTAGGTCAAAGGACAGTTAAAGGCGACGTA")
0.165
>>> readoutnumber("CGGAGTAGGTTACGAGGGGGCATTCAGTGCGAAT")
6.07
>>> readoutnumber("CGAACTAGTTCACCAGGACAGTGAAGAGGTTGGA")
0.241
>>> readoutnumber("CCGACTAGGTTACGAGGGGGCATTCAGTGCGAAT")
5.23
>>> readoutnumber("CAAACTAGGTCAAAGGTCAAAGTAGAGCCAACCA")
2.18
>>> readoutnumber("ATATGTAGGTTAGGGTCATTCAGAAAGTAGGGAA")
2.12
>>> readoutnumber("AATTCAGGGTCACTAGGCCAGAGTAGGTACGAAT")
0.429
>>> readoutnumber("CGTCCAACGTCAGCAGGTCAGTGAAAGCGACGTG")
-0.448
>>> readoutnumber("CGAACTAGGTCAAAGGACCGTGAAAGGCGACGTA")
-0.51
>>> readoutnumber("ATCGAAAGGTCGTGAGGTGTGTATACAGAAAGGC")
-0.215
>>> readoutnumber("CCTACTGGGCCATTCAGAGGTCATCGATCATATG")
2.18
>>> readoutnumber("CGTCCAAGGTCAGCAGGTGAGTGAAAGCGACGTG")
0.206
>>> readoutnumber("CGAACTAGGTCACCAGGATAGTGAAGAGGTTGGA")
-0.0879
>>> readoutnumber("CGTCAAAGTTAAAGGTAACGTAACAGAAAGCAGC")
0.0362
>>> readoutnumber("AGTCCAAGTTCACTAGGTAACGTAAGATTCAGCT")
2.13
>>> readoutnumber("GCTTACGGGTCAAAGGTTACAGCATGAATAGAAT")
0.418
>>> readoutnumber("ATCGAAGGGTCGAAGGTGAGTATACCCACCCGAA")
-0.184
>>> readoutnumber("ATCGAACGGTCGAGGTGAGTATAGAGAAAGGGAA")
-0.544
>>> readoutnumber("AATACAGGGTCACTAGGCCCGAGTAGGTACGAAT")
0.0617
>>> readoutnumber("CGAACTAAGTCATCCAGGACAGTGAATACATTGA")
-0.248
>>> readoutnumber("ATCTCTAGGTAAAGTTCATTGAAAGATCGATAGA")
5.32
>>> readoutnumber("CGAACTAGGTCAAACGACAGTGAAAGGCGACGTA")
-0.315
>>> readoutnumber("AGATTGAGGTTACCAAAGATCAGGGAAACGCTTG")
-0.393
>>> readoutnumber("ATACGTAGGTTATCGGGTCATTCAGTTTGCGCAT")
8.01
>>> readoutnumber("CGAACTAGGTCAATGGACAGTGAAAGGCGACGTA")
-0.177
>>> readoutnumber("ACAGACAGGTGAGTGAAGGTCACTCAGCTGGACG")
0.106
>>> readoutnumber("TCTAGCTGGTCAAAGGTCACACACTCGAAATGCG")
0.771
>>> readoutnumber("ATATGTAGGTGAAGGGTCATTCAGGTTGGTTCGC")
2.24
>>> readoutnumber("ATATGTAGGTAACATCCGGGTCATTCAGGCTATG")
2.16
>>> readoutnumber("CGTCCAAGCTCAGCAGGTCAGTGAAAGCGACGTG")
-0.688
>>> readoutnumber("TATCCTAGGTCAGATCGGGCCAGTATACGCTATA")
0.14
>>> readoutnumber("CACACTAGGTCAAAGGTCAAAGTCGAGCCAACCA")
2.74
>>> readoutnumber("CGAACTAGGTCACCAGGACAGAGAAGAGGTTGGA")
0.0837
>>> readoutnumber("CGAACTAGGTCAAAGGACGGTGAAAGGCGACGTA")
-0.279
>>> readoutnumber("TCGAGTGGGTTACGGGGGCATTCAGGGATGAAGA")
2.12
>>> readoutnumber("CCGAGTACGTTACGAGGGGGCATTCAGTGCGAAT")
6.19
>>> readoutnumber("GCTGCTAGGTCAGGTTGGTCAACTAACGGGTACG")
-0.382
>>> readoutnumber("CAATCTAGGTCACGAAAGGTCAAAGTCGAATGAC")
3.37
>>> readoutnumber("CCTACTGGGCCACTCAGAGGTCATTGATCATATG")
1.83
>>> readoutnumber("CTCGAAAGGTCGGTTGAGGTCAGTATACGGATAA")
2.85
>>> readoutnumber("CAAACTAGGTCACAGGGGTCAAAGTCCGTGCGTA")
8.47
>>> readoutnumber("ACTAGTTGGTAAGCTGAGGTCACACACAATTCGG")
1.85
>>> readoutnumber("CGAACTAGGTCACCAGGGCAGTGAAGAGGTTGGA")
-0.014
>>> readoutnumber("CGAACTAGGTCAAAGGACAGTGAGAGGCGACGTA")
-0.246
>>> readoutnumber("CGAACTAGGTCAAAGGACAGGGAAAGGCGACGTA")
-0.253
>>> readoutnumber("CGAACTAGGGCAAAGGACAGTGAAAGGCGACGTA")
-0.625
>>> readoutnumber("TCGAGTATGTTACGGGGGCATTCAGGGATGAAGA")
1.12
>>> readoutnumber("CGTCCAAGGTCAATGCTAGCTCAGTGAAAGCATT")
0.507
>>> readoutnumber("GATACAGGGTCAGCTTGAGGCCAGAGTATGGAAA")
-0.346
>>> readoutnumber("ATATGTAGGTTAGGGTCATTCAAAAAGTAGGGAA")
2.2

====

Recorded PBM binding z-score by entry
- Test system: PPARa:RXRa (NR concentration 270 nM, RXRa partner concentration 90 nM)
- experimentNotes: PBM binding z-score (relative to random genomic background probes); higher = stronger binding; sequences stand for … in GC…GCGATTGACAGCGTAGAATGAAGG
endpointLabel: PBM binding z-score

>>> readoutnumber("ATACGTAGGTTACATCCGGGTCATTCAGGCTATG")
3.03
>>> readoutnumber("TCGAGTAGGTTACGGGGGCATTGAGGGATGAAGA")
4.31
>>> readoutnumber("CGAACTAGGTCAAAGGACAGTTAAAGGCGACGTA")
5.58
>>> readoutnumber("CGAATTAGGTCACCAGGACAGTGAAGAGGTTGGA")
5.25
>>> readoutnumber("TCGAGTAGGTTACGGGGGCATACAGGGATGAAGA")
4.48
>>> readoutnumber("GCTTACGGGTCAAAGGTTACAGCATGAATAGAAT")
7.24
>>> readoutnumber("ACTAGTAGGCCAAGGGTCACTCAAGATTAGTCCG")
5.64
>>> readoutnumber("CCTAGTTGGTCAGGAGGTCACAAACCGGATATGA")
3.98
>>> readoutnumber("ATATGTGGGTTAGGGTCATTCAGAAAGTAGGGAA")
5.7
>>> readoutnumber("ATCGAAAGGTCGTGAAGTGAGTATACAGAAAGGC")
4.76
>>> readoutnumber("CTATGTAGGTTAAGGGGGTCCTTCAGTTTGAAAG")
4.29
>>> readoutnumber("CCGAGTAGGTTACGAGGGGGCATGCAGTGCGAAT")
3.35

====

Recorded PBM binding z-score by entry
- Tested on: LXRa:RXRa (NR concentration 270 nM, RXRa partner concentration 90 nM)
- experimentNotes: PBM binding z-score (relative to random genomic background probes); higher = stronger binding; sequences stand for … in GC…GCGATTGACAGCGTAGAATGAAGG
endpointLabel: PBM binding z-score

>>> result("CCTGCTAGGACAATGGTCAGCTAAAGCAGCTCGC")
-0.803
>>> result("ATCGTAAGGTCGTGAGGTGAGTATACAGAAAGGC")
2.69
>>> result("ATATGTAGGTTAGCGGGGGTCATTCAGACTAGGC")
5.95
>>> result("CGTCAAAGTTCAACTAAGTTAACGTAAAGCACGC")
5.95
>>> result("AGAATGAGGTTAACAAAGATCAGGGAAACGCTTG")
5.37
>>> result("TAGCCTAGGTCATTCAGGCGCCAGTATAGAAAGC")
3.26
>>> result("TCTAGTTCGTCACGGAGGTCACACACGACGGGTA")
3.72
>>> result("ATCGAAAGGTCGTGAGGTGAGTACACAGAAAGGC")
4.23
>>> result("GCTGCTAGGTCGACTGATGGTCAGCTAAAGCTCG")
-0.522
>>> result("CGAACTAGGTCAAAGAACAGTGAAAGGCGACGTA")
1.96
>>> result("CCTTACGGGTCACTTACAGGTTATAGCATTTGGA")
4.49
>>> result("CGAACTAGGTCACCAGGACAATGAAGAGGTTGGA")
2.55
